These entries and their values trace back to patent US5739162A.

systemUnderTest: CCK-A receptor (Mus musculus, UniProt O08786)
Construct: crude membrane specimen from mouse pancreas; from tissue; host or cells: pancreas of male ddY mice, crude membranes
Sequence (O08786 1-436): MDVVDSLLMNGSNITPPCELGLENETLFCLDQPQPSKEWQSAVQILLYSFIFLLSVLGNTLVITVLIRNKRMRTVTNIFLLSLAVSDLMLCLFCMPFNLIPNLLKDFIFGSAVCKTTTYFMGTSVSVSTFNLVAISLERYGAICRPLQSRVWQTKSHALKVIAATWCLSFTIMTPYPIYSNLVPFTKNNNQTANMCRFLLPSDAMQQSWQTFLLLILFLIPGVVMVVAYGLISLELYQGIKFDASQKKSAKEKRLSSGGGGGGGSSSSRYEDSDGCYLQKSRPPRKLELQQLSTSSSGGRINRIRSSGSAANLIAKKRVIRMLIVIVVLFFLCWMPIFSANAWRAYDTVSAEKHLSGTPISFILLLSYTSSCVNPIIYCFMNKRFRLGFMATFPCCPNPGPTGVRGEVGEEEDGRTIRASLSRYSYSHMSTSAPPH
experimentalProtocol: CCK-A receptor antagonism: displacement of [3H]CCK-8 from crude membrane of pancreas
Assay type: binding, mouse (male ddY)
measurementParameters: [3H]CCK-8 1 nM, 90 min, 25° C.

{"molecule": "Cc1ccc(NC(=O)NCC(=O)N(CC(=O)OC(C)(C)C)c2ccccc2C(=O)c2ccccc2)cc1 [Compound 7z]", "unitLabel": "nM", "comparator": "=", "IC50": 1900}
{"molecule": "CC(C)(C)NC(=O)CN(C(=O)CNC(=O)Nc1cccc(C(=O)O)c1)c1ccccc1C(=O)c1ccccc1 [Compound 16b]", "unitLabel": "nM", "comparator": ">", "IC50": 10000}
{"molecule": "C=CCOC(=O)c1cccc(NC(=O)NCC(=O)N(CC(=O)NC(C)(C)C)c2ccccc2C(=O)c2ccccc2)c1 [Compound 16a]", "unitLabel": "nM", "comparator": "=", "IC50": 4400}
{"molecule": "CC(C)(C)OC(=O)CN(C(=O)CNC(=O)Nc1ccc(Cl)cc1)c1ccccc1C(=O)c1ccccc1 [Compound 7y]", "unitLabel": "nM", "comparator": "=", "IC50": 1800}
